B1: F1*; the commonest letter at each place (parent)
chain: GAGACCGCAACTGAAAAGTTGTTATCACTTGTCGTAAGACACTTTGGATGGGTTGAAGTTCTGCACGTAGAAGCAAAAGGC

# Variants of: B1
# TEST_DESCRIPTION: fraction ligated after 30 min (ligated reads / total reads); higher = more ligase activity
# EXPERIMENTAL_SETUP: with F1*sub RNA substrate (template-directed ligation), 42 °C
# fraction ligated per record follows
Reply briefly: the number, and no unit.

Worked cases, answers included:
>>> measurement("GAGACCGCAACTGAAAAGTTGTTATCACTTATCTTAAGACACTTTGGATGGGTTGAAGTTCTGCACGTAGAAGCAAAAGGC")
0.796
>>> measurement("GAGACCGCAACTGAAAAGTTGTTATCACTTGTCGTAAGATACATTGGATGGGTTGAAGTTCTGCACGTAGAAGCAAAAGGC")
0.819
>>> measurement("GAGACCGCAACTGAAAAGTTGTTATCACTTGTCGTGAGACACTATGGATGGGTTGAAGTTCTGCACGTAGAAGCAAAAGGC")
0.848

So what does the record say about fraction ligated for "GAGACCGCAACTGAAAAGTTGTTATCACTTGTCGTGAGACACTTTTGATGGGTTGAAGTTCTGCACGTAGAAGCAAAAGGC" ?
0.825

So what does the record say about fraction ligated for "GAGACCGCAACTGAAAAGTTGTTATCACTTGTCGTAAGACACTTTGGAGGGGTTCAAGTTCTGCACGTAGAAGCAAAAGGC" ?
0.136

So what does the record say about fraction ligated for "GAGACCGCAACTGAAAAGTTGTTAACACTTGTCGTAAGAAACTTTGGATGGGTTGAAGTTCTGCACGTAGAAGCAAAAGGC" ?
0.134

So what does the record say about fraction ligated for "GAGACCGCAACTGAAAAGTTGTTATCAATTGTGGTAAGACACTTTGGATGGGTTGAAGTTCTGCACGTAGAAGCAAAAGGC" ?
0.813

So what does the record say about fraction ligated for "GAGACCGCAACTGAAAAGTTGTTCTCACTTGTCGTAAGACACTTCGGATGGGTTGAAGTTCTGCACGTAGAAGCAAAAGGC" ?
0.0358

So what does the record say about fraction ligated for "GAGACCGCAACTGAAAAGTTGTTATCACTTGTTGTAAGACACTTTGGAAGGGTTGAAGTTCTGCACGTAGAAGCAAAAGGC" ?
0.787

So what does the record say about fraction ligated for "GAGACCGCAACTGAAAAGTTGTTATCGCTTGTCGTAAGACACTTTGGATGGGTTTAAGTTCTGCACGTAGAAGCAAAAGGC" ?
0.79

So what does the record say about fraction ligated for "GAGACCGCAACTGAAAAGTTGTTAGCACTTGTCGTAAGACACGTTGGATGGGTTGAAGTTCTGCACGTAGAAGCAAAAGGC" ?
0.515

So what does the record say about fraction ligated for "GAGACCGCAACTGAAAAGTTGTTATCACTAGTCGTAAGACACTTTGGATGGGTTTAAGTTCTGCACGTAGAAGCAAAAGGC" ?
0.818
